- Test system: CCRIS mutagenicity, Ames/micronucleus/aberration tests
- assay.method.text: CCRIS mutagenicity studies
- experimental.setup: Test System: AMES SALMONELLA TYPHIMURIUM; Strain/Indicator: TA98; Metabolic Activation: NONE; Method: STANDARD PLATE
- Description: The CCRIS database contains chemical records with carcinogenicity, mutagenicity, tumor promotion, and tumor inhibition test results. It was developed by the National Cancer Institute (NCI). Data are derived from studies cited in primary journals, current awareness tools, NCI reports, and other sources. Test results have been reviewed by experts in carcinogenesis and mutagenesis. CCRIS provides historical information from the years 1985 - 2011. It is no longer updated. […]
The source made the active and inactive calls. The rule behind the calls is not given here.
Outcome (select one): active, inactive

Some solved cases for reference:
>>> label_value("O=C(O)COc1ccc2ccccc2c1")
"inactive"
>>> label_value("O=S(=O)(O)CNc1ccc(N=Nc2cccnc2)cc1")
"inactive"
>>> label_value("C=C1C(=O)O[C@@H]2[C@H]1CC[C@H](C)[C@@H]1C=CC(=O)[C@@]21C")
"inactive"
>>> label_value("Nc1ccc(S(=O)(=O)c2ccc(N)cc2)cc1")
"inactive"
>>> label_value("Nc1ccc(N)cc1")
"inactive"
>>> label_value("O=NN(CCCl)C(=O)NC1CCCCC1")
"inactive"

[in] In this assay, the call recorded for O=[N+]([O-])c1c2ccccc2cc2ccccc12 was what?
[out] active

[in] Given C=CC(=O)OCCCC , state the outcome it received in this test.
[out] inactive

[in] What was the test verdict on ONc1ccc2ccccc2c1 ?
[out] active

* * *

- Test system: CCRIS mutagenicity, Ames/micronucleus/aberration tests
- assay.method.text: CCRIS mutagenicity studies
- experimental.setup: Test System: AMES SALMONELLA TYPHIMURIUM; Strain/Indicator: TA98; Metabolic Activation: NONE; Method: STANDARD PLATE
The source made the active and inactive calls. The rule behind the calls is not given here.
Permitted responses: yes for active, no for inactive

>>> label_value("Cc1cc(N)c(C)c2c1[nH]c1ccc(O)cc12")
"no"
>>> label_value("CC(C)N1C(=O)c2ccccc2NS1(=O)=O")
"no"
>>> label_value("Cc1ccc(C(=O)c2cc(O)c(O)c([N+](=O)[O-])c2)cc1")
"no"
>>> label_value("c1c[nH]cn1")
"no"
>>> label_value("C1=Cc2cc3c4ccccc4ccc3c3cccc1c23")
"no"
>>> label_value("Nc1nc2c(ncn2[C@@H]2C=C[C@H](CO)C2)c(=O)[nH]1")
"no"

[in] Tell me the assay call for CCc1cccc(NC(=O)c2csc([N+](=O)[O-])c2)c1 please.
[out] yes

[in] Kindly provide the recorded test outcome for the following compound: Nc1cc(C(F)(F)F)ccc1Cl
[out] no

[in] Which outcome was entered for the compound c1ccc2c(c1)cc1ccc3cc4ccccc4c4ccc2c1c34 in this test?
[out] no

[in] Recorded call for C[C@]12CC[C@@H]3c4ccc(O)cc4CC[C@H]3[C@@H]1CC[C@@H]2O ?
[out] no

[in] Outcome? O=CC=C(Cl)Cl
[out] yes

[in] Entry CCC1CCC(CCC(=O)[O-])C1.CCC1CCC(CCC(=O)[O-])CC1.[Cu+2] (centres undefined) : call = ?
[out] no

* * *

- Test system: CCRIS mutagenicity, Ames/micronucleus/aberration tests
- assay.method.text: CCRIS mutagenicity studies
- experimental.setup: Test System: AMES SALMONELLA TYPHIMURIUM; Strain/Indicator: TA1537; Metabolic Activation: RAT, LIVER, S-9, AROCLOR 1254; Method: STANDARD PLATE
Activity calls are given as the source filed them. The rule behind the calls is not given here.
// one of active, inactive, no free text

Previously resolved entries follow.
>>> label_value("O=CC=C(Cl)Cl")
"inactive"
>>> label_value("CCCS(=O)(=O)n1ncc(Cl)c(Cl)c1=O")
"inactive"
>>> label_value("CCNc1nc(Cl)nc(NC(C)C)n1")
"inactive"

[in] How did this test come out for C=CC(=O)OCCCC ?
[out] inactive

[in] Hi, sorry to bother you, what did the test record for CCCCCCCCCC/C=C/C1CC(=O)OC1=O (stereo unspecified) ?
[out] inactive

* * *

- Tested on: CCRIS mutagenicity, Ames/micronucleus/aberration tests
- assay.method.text: CCRIS mutagenicity studies
- experimental.setup: Test System: AMES SALMONELLA TYPHIMURIUM; Strain/Indicator: TA1535; Metabolic Activation: NONE; Method: STANDARD PLATE
Active and inactive are the calls of the source. No rule for the calls is given here.
// classify into true (1) = active, false (0) = inactive

>>> label_value("O=[N+]([O-])O[C@H]1CO[C@H]2[C@@H]1OC[C@H]2O[N+](=O)[O-]")
"false (0)"
>>> label_value("O=C(O)/C=C/c1ccc(O)c(O)c1")
"false (0)"
>>> label_value("CC(C)NCC1CCc2cc(CO)c([N+](=O)[O-])cc2N1 (centres undefined)")
"false (0)"
>>> label_value("CC(CF)NCC(O)COc1cccc2[nH]c3ccccc3c12 (centres undefined)")
"true (1)"
>>> label_value("C/C=C(/C(=C/C)c1ccc(O)cc1)c1ccc(O)cc1")
"false (0)"
>>> label_value("C1CSCCO1")
"false (0)"
>>> label_value("Nc1nc2c(ncn2[C@@H]2C=C[C@H](CO)C2)c(=O)[nH]1")
"false (0)"
>>> label_value("N#CC(Cl)Cl")
"true (1)"
>>> label_value("CC(=O)[CH-]C(=O)c1ccccc1.CC(=O)[CH-]C(=O)c1ccccc1.CC[O-].CC[O-].[Ti+4]")
"false (0)"
>>> label_value("CN(C)C(=O)c1nc(CNC(=O)CN)n(-c2ccc(Cl)cc2C(=O)c2ccccc2Cl)n1")
"false (0)"

[in] Field: outcome | Entry: C[Si]1(C)O[Si](C)(C)O[Si](C)(C)O[Si](C)(C)O1
[out] false (0)

[in] Recorded test outcome, item COc1ccc2nc3cc(Cl)ccc3c(NCCCNCCCl)c2n1
[out] false (0)

[in] Dear all, I need the recorded test outcome for C=CC(=O)OCCCCCOC(=O)C=C , thank you.
[out] false (0)

[in] Any idea what this test logged for C[C@@H]1O[C@@H](OC[C@H]2O[C@@H](Oc3c(-c4ccc(OCCO)c(OCCO)c4)oc4cc(OCCO)cc(O)c4c3=O)[C@H](O)[C@@H](O)[C@@H]2O)[C@H](O)[C@H](O)[C@H]1O ?
[out] false (0)

* * *

- Tested on: CCRIS mutagenicity, Ames/micronucleus/aberration tests
- assay.method.text: CCRIS mutagenicity studies
- experimental.setup: Test System: AMES SALMONELLA TYPHIMURIUM; Strain/Indicator: TA1535; Metabolic Activation: HAMSTER, LIVER, S-9, AROCLOR 1254; Method: STANDARD PLATE
Activity calls are given as the source filed them. How the calls were made is not given here.
Tick one outcome: y (active), n (inactive)

Use the examples below as a reference point.
>>> label_value("C[n+]1cccc(C(=O)[O-])c1")
"n"
>>> label_value("CC(C)=CCC1=C(O)c2ccccc2C(=O)C1=O")
"n"

[in] // param item: CCCON=O ; yields the recorded call
[out] y

[in] // return assay outcome for O=C(O)CN(CCN(CC(=O)O)CC(=O)O)CC(=O)O
[out] n

[in] Test call for this compound, please: CN(Cc1cccc(Cl)c1)N=O
[out] y

[in] So what was the verdict on CC(O)CCC(=O)c1ccoc1 (centres undefined) in this test?
[out] n

[in] Which outcome did this test record for the compound Cc1ccc(N)c(S(=O)(=O)O)c1 ?
[out] n

[in] # outcome recorded in this test, key = O=CC(O)C(O)C(O)C(O)COC1OC(COC2OC(CO)C(O)C(O)C2O)C(O)C(O)C1O (centres undefined)
[out] n

[in] Hello, I am checking results. What call was entered for CCCCCCCCCC/C=C/C1CC(=O)OC1=O (centres undefined) ?
[out] n

* * *

- Tested on: CCRIS mutagenicity, Ames/micronucleus/aberration tests
- assay.method.text: CCRIS mutagenicity studies
- experimental.setup: Test System: AMES SALMONELLA TYPHIMURIUM; Strain/Indicator: TA1538; Metabolic Activation: RAT, LIVER, S-9, AROCLOR 1254; Method: STANDARD PLATE
Activity calls are given as the source filed them. How the calls were made is not given here.
Output constraint: value belongs to 1.0 for active, 0.0 for inactive

[in] Which outcome was entered for the molecule CC(O)Cc1cc(N)cc([N+](=O)[O-])c1N (stereo not given) in this test?
[out] 0.0

[in] Which result was noted for this molecule in the test: Nc1c(Br)cc([N+](=O)[O-])cc1[N+](=O)[O-]
[out] 1.0

[in] Would you mind telling me which call this test gave CC(=O)[CH-]C(=O)c1ccccc1.CC(=O)[CH-]C(=O)c1ccccc1.CC[O-].CC[O-].[Ti+4] ?
[out] 0.0

[in] Per the records of this test, what outcome belongs to Cc1ccc(N)c(S(=O)(=O)O)c1 ?
[out] 0.0

[in] For O=C(O)Cc1c[nH]c2ccccc12 , which call appears in the assay record?
[out] 0.0

[in] Lab log entry: CCOC(=O)c1cc2cc3c4c(c2oc1=O)CCCN4CCC3 — outcome as called in the assay?
[out] 0.0

[in] For this molecule, state the assay outcome: NC(=O)c1ccc(N)cc1
[out] 0.0

[in] Status in this test for Cc1ccc(S(=O)(=O)Oc2ccc(N=Nc3ccc(-c4ccc(N=Nc5c(O)ccc6cc(S(=O)(=O)O)cc(S(=O)(=O)O)c56)c(C)c4)cc3C)cc2)cc1 ?
[out] 1.0

[in] Would you mind telling me which call this test gave C=C(C)C(=O)OCC ?
[out] 0.0

[in] Dear colleague, could you share the recorded outcome for CC(C)N(C(=O)SC/C(Cl)=C/Cl)C(C)C when you have a moment?
[out] 0.0

The measurements presented in this section are drawn from PubChem BioAssay AID1259407.
